B1: library; a variant is named by its letters at N, in order (parent)
chain: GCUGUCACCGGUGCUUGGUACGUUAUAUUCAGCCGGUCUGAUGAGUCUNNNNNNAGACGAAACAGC

# Variants of: B1
# experimentSummary: normalized RNA/DNA level without ligand (relative to sTRSVctl = 100) (log10 (% of sTRSVctl)); HEK293T overexpressing SLC46A1; higher = less ribozyme self-cleavage, higher mRNA level
# studyConditions: without (6R,S)-folinic acid; ligand present: no
propertyMeasured: normalized RNA/DNA level without ligand (log10)
# output: bare number, no unit

Q: In one line, give reported normalized RNA/DNA level without ligand (log10) of the entry `GCCUCC` .
Result: 2.07

Q: In one line, give reported normalized RNA/DNA level without ligand (log10) of the entry `UUUCAA` .
Result: 2

Q: In one line, give reported normalized RNA/DNA level without ligand (log10) of the entry `AACUGG` .
Result: 1.94

// provenance: the supplement of paper PMC6757056
